System: ATS95
Test: qHTS profiling for inhibitors of Plasmodium falciparum proliferation (AID 504749); further: nearly all actives have a fitted effect of over 60% in size
Conditions: P. falciparum in erythrocytes, SYBR Green DNA, 72 h; series mostly up to 28.7 µM
Records with an inconclusive call do not appear. Calls of active or inactive are those of the source. The call rests on the fitted dose curve; in most records, active means well fitted inhibition curve with a large enough effect; inconclusive means small, poorly fitted or top-dose-only effect; inactive means flat fitted curve, though single readings scatter.
The reply should name one outcome from active, inactive

INSERT INTO results (compound, target_of_assay, class_label) VALUES
  ('O=C1CN=C(c2ccccc2)c2cc(Cl)ccc2N1CC1CC1', 'ATS95', 'inactive'),
  ('CC(C)(C)c1cc(O)ccc1O', 'ATS95', 'active'),
  ('CN1C2CCC1CC(OC(c1ccccc1)c1ccc(Cl)cc1)C2 (centres undefined)', 'ATS95', 'active'),
  ('O=c1[nH]cc(N(CCCl)CCCl)c(=O)[nH]1', 'ATS95', 'inactive'),
  ('O=[N+]([O-])c1ccc(F)c([N+](=O)[O-])c1', 'ATS95', 'inactive'),
  ('O=C1CCO1', 'ATS95', 'inactive'),
  ('S=C=S', 'ATS95', 'inactive'),
  ('CC(C)CCON=O', 'ATS95', 'inactive');

Test call, this compound: O=P(O)(O)C(Cl)(Cl)P(=O)(O)O inactive

Test call, this compound: C[C@H]1CCC[C@H](O)CCCCCc2cc(O)cc(O)c2C(=O)O1 inactive

Test call, this compound: CCCC(C)(COC(N)=O)COC(=O)NC1CC1 (centres undefined) inactive

Test call, this compound: CCCC(C)C1(CC)C(=O)NC(=O)NC1=O (centres undefined) inactive

Test call, this compound: CNC(=O)OCC[N+](C)(C)C inactive

Test call, this compound: S=C(S)N1CCNCC1 inactive

====

Test: Validation screen for inhibitors of Lassa infection (AID 463096)
Details: Lassa virus infection, cell-based; series mostly up to 46.1 µM
Inconclusive results are not listed. The source made the active and inactive calls. Calls come from the whole dose curve.
The reply should name one outcome from 1 (active), 0 (inactive)

INSERT INTO results (compound, class_label) VALUES
  ('CCN(CC)c1ncnc2c1ncn2[C@@H]1O[C@H](COP(=O)(O)OP(=O)(O)C(Br)(Br)P(=O)(O)O)[C@@H](O)[C@H]1O', 0),
  ('C[C@H](Cc1ccc2c(c1)OC(C(=O)O)(C(=O)O)O2)NC[C@H](O)c1cccc(Cl)c1', 0),
  ('CCS(=O)(=O)Nc1cccc(C(=C2CCCCC2)c2cnc[nH]2)c1', 0),
  ('C=CCN1CCC23c4c5ccc(O)c4O[C@H]2C(=O)CC[C@@]3(O)C1C5 (stereo not given in full)', 0),
  ('C[N+](C)(C)CC#CCOC(=O)Nc1cccc(Cl)c1', 0);

Test call, this compound: NC(C(=O)O)c1cc(=O)[nH]o1 (stereo not given) 0

Test call, this compound: NC(CCCCCP(=O)(O)O)C(=O)O (stereo not given) 0

Test call, this compound: NNC(=O)c1ccc(O)cc1 0

Test call, this compound: COc1ccc2[nH]cc(CCN)c2c1 0

Test call, this compound: CNc1ccc2oc(C[C@H]3O[C@@]4(CC[C@H]3C)O[C@H]([C@H](C)C(=O)c3ccc[nH]3)[C@H](C)C[C@H]4C)nc2c1C(=O)O 1

Test call, this compound: COc1ccc2c(c1)C13CCCCC1C(C2)N(C)CC3 (stereo not given) 0

Test call, this compound: N[C@@H](CCl)C(=O)O 0

Test call, this compound: C[N+](C)(C)CCOC(=O)CBr 0

Test call, this compound: C/C(O)=C(\C#N)C(=O)Nc1cc(Br)ccc1Br 0

Test call, this compound: NCC(O)c1cc(O)c(O)cc1F (stereo not given) 0

Test call, this compound: NC(=O)COc1c(F)cc(SCCNS(=O)(=O)c2ccccc2)cc1F 0

Test call, this compound: C[C@]12Cc3cn4c(nc3C=C1CCC1C2CC[C@@]2(C)[C@H]1CC[C@@]2(O)C#N)nc1ccccc14 (stereo not given in full) 0

Test call, this compound: CCCN(CCC)[C@H]1CCc2c(F)ccc(O)c2C1 0

Test call, this compound: C[C@@H]1O[C@H](C[N+](C)(C)C)CS1 0

Test call, this compound: C[N+]1(C)CCC(OC(=O)C(c2ccccc2)c2ccccc2)CC1 0

Test call, this compound: NCCc1ccc(S(=O)(=O)F)cc1 0

Test call, this compound: COc1ccc(CNC(=O)/C=C/c2ccc3[nH]cc(CCN(C)C)c3c2)cc1 0

Test call, this compound: CCCN(CCC)C1Cc2cc(OC)c(OC)cc2C1 0

Test call, this compound: CO[C@H]1CC=C2CCN3CCC4=C(CC(=O)OC4)[C@]23C1 0

====

Assay: P-glycoprotein substrates identified in KB-8-5-11 adenocarcinoma cell line, qHTS therapeutic library screen (AID 1346987); further: nearly all actives have a fitted effect of over 65% in size; further: potency means the concentration at half of the fitted maximal effect
Conditions: KB-8-5-11 (P-gp overexpressing) viability, CellTiter-Glo, 72 h; series mostly up to 44.5 µM
Results filed as inconclusive are left out. The source made the active and inactive calls. Calls come from the whole dose curve; as a rule, active = well fitted inhibition curve with a large enough effect; inconclusive = small, poorly fitted or top-dose-only effect; inactive = flat fitted curve, though single readings scatter.
endpoint: Potency

INSERT INTO measurements (compound, value) VALUES
  ('CCc1[nH]c2ccc(OC)cc2c1CCN(C)C', 'inactive'),
  ('COC(=O)[C@@H]1[C@H]2CC[C@@H](C[C@H]1OC(=O)c1ccccc1)N2C', 'inactive'),
  ('CN1[C@H]2C[C@H](OC(=O)[C@H](CO)c3ccccc3)C[C@@H]1[C@@H](O)C2', 'inactive'),
  ('COC1CC(OC2CCC3(C=O)C(CCC4C3CCC3(C)C(C5=CC(=O)OC5)CCC43O)C2)OC(C)C1OC1OC(CO)C(O)C(O)C1O (stereo not drawn)', '172 nM (active)'),
  ('Cc1cccc(C(C)c2cnc[nH]2)c1C (stereo not drawn)', 'inactive');

Give the value of Potency reported for the following: OCCCCC#Cc1cncc(OC[C@@H]2CCN2)c1 inactive

Give the value of Potency reported for the following: CC(=O)O[C@H]1C[C@H](O[C@H]2[C@@H](O)C[C@H](O[C@H]3[C@@H](O)C[C@H](O[C@H]4CC[C@@]5(C)[C@H](CC[C@@H]6[C@@H]5C[C@@H](O)[C@]5(C)[C@@H](C7=CC(=O)OC7)CC[C@]65O)C4)O[C@@H]3C)O[C@@H]2C)O[C@H](C)[C@H]1O[C@@H]1O[C@H](CO)[C@@H](O)[C@H](O)[C@H]1O 206 nM (active)

Give the value of Potency reported for the following: C[C@@H](Cc1ccccc1)N(C)C inactive

====

Catalogue of compounds with associated activity, negative = cell killing
Assay: Drug repurposing screens with cells derived from glioblastoma tumor samples (AID 1345199); further: on the % scale 0 is the no-effect control and ±100 the full control effect; nearly all actives have a fitted effect of over 40% in size
Settings: GBM patient neurospheres viability, ATP luminescence, 48 h; at 45.9 µM (top of the series); tumour line D
Records with an inconclusive call do not appear.
Lab book: enter the figure in %, no units written.

INSERT INTO measurements (compound, value) VALUES
  ('c1cc2c(c(NC3=NCCN3)c1)CCCC2', -28.2),
  ('O=c1[nH]c(=O)n(Cl)c(=O)n1Cl', -0.766),
  ('CN(C)CCCCCCN(C)C (tested in a mixture with another compound)', -12.1),
  ('ClC(Cl)(Cl)Cl', 4.09),
  ('C/C(=C\c1csc(C)n1)[C@@H]1C[C@@H]2O[C@]2(C)CCC[C@H](C)[C@H](O)[C@@H](C)C(=O)C(C)(C)[C@@H](O)CC(=O)O1', -19.9),
  ('O=CC=O', -5.05);

Give the value of activity, negative = cell killing reported for the following: C[C@]12CC[C@H](OS(=O)(=O)O)CC1=CC[C@@H]1[C@@H]2CC[C@]2(C)C(=O)CC[C@@H]12 -2.35

Give the value of activity, negative = cell killing reported for the following: C=CCC1(C(C)CCC)C(=O)N=C(S)NC1=O (configuration not stated) -15.2

Give the value of activity, negative = cell killing reported for the following: [2H]C([2H])([2H])[C@H](N)Cc1ccccc1 -8.54

====

Experiment: P-glycoprotein substrates identified in KB-8-5-11 adenocarcinoma cell line, qHTS therapeutic library screen (AID 1346987); further: nearly all actives have a fitted effect of over 65% in size
Conditions: KB-8-5-11 (P-gp overexpressing) viability, CellTiter-Glo, 72 h; series mostly up to 44.5 µM
Inconclusive results are not listed. Active and inactive are the calls of the source. Calls follow the shape of the dose curve; as a rule, active = well fitted inhibition curve with a large enough effect; inconclusive = small, poorly fitted or top-dose-only effect; inactive = flat fitted curve, though single readings scatter.
The reply should name one outcome from active, inactive

Answered cases to consult:
INSERT INTO assay_data (molecule, class_label) VALUES
  ('c1cc2c(c(NC3=NCCN3)c1)CCCC2', 'inactive'),
  ('O=C(NC(=O)c1c(F)cccc1F)Nc1ccc(Cl)c(Oc2ncc(C(F)(F)F)cc2Cl)c1', 'inactive'),
  ('CC(=O)Oc1ccc2c3c1O[C@H]1[C@@H](OC(C)=O)C=C[C@H]4[C@@H](C2)N(C)CC[C@@]341', 'inactive'),
  ('CC(Cc1ccccc1)NC=O (stereo unspecified)', 'inactive'),
  ('N#CC(C#N)=Cc1cc(O)c(O)c(O)c1', 'inactive'),
  ('CC1=CC2/C=C(\C)CCC(O)C3OC(C)(C)OC3CC(=O)OC23C(=O)NC(CC(C)C)C3C1C (stereo unspecified)', 'inactive'),
  ('CN1c2ccccc2C(NCCCCCCC(=O)O)c2ccc(Cl)cc2S1(=O)=O (stereo unspecified)', 'inactive'),
  ('CC[C@H]1CN2CC[C@H]1C[C@H]2[C@H](O)c1ccnc2ccc(OC)cc12', 'inactive');

Test call, this molecule: CO[C@H]1[C@H](O)[C@H](O[C@H]2CC[C@]3(C)C4CC[C@]5(C)[C@H](C6=CC(=O)OC6)CC[C@]5(O)C4CC[C@@H]3C2)O[C@@H](C)[C@@H]1O (stereo partly specified) active

Test call, this molecule: C[N+]1([O-])[C@@H]2CC[C@H]1CC(OC(=O)C(CO)c1ccccc1)C2 (stereo partly specified) inactive

Test call, this molecule: Cc1cc(C(=O)CN2CCCC2)c(C)n1-c1ccc(F)cc1 inactive

Test call, this molecule: CC[N+](C)(CC)CCOC(=O)C(O)(c1ccccc1)c1ccccc1 inactive

Test call, this molecule: CN(C(=O)Cc1ccccc1)C(CN1CCCC1)c1ccccc1 (stereo unspecified) inactive
